Measured values drawn from ChEMBL document CHEMBL1124219 for this set.

- tested.system: Pepsin A (Sus scrofa)
- measurement.protocol: Inhibition of porcine pepsin at pH 4
Where a SMILES comes first, the peptide text is derived from it. [ ]: non-standard residue; d: D form. Sta = CC(C)C[C@H](N)[C@@H](O)CC(=O)O
metric: Ki (nM)
Dear colleague, please return just the value in nM, with no unit written.

Query block: Return Ki measured with Pepsin A (Sus scrofa) given this compound: COC(=O)[C@H](Cc1ccccc1)NC(=O)[C@H](C)NC(=O)C[C@H](O)[C@H](CC(C)C)NC(=O)[C@H](Cc1c[nH]cn1)NC(=O)CNC(=O)[C@@H](N)Cc1ccccc1 (H-FGH[Sta]AF-OMe)
Result block: 150

###

Record: pKi reported on Renin (Homo sapiens, UniProt P00797).
Sequence (P00797 whole entry): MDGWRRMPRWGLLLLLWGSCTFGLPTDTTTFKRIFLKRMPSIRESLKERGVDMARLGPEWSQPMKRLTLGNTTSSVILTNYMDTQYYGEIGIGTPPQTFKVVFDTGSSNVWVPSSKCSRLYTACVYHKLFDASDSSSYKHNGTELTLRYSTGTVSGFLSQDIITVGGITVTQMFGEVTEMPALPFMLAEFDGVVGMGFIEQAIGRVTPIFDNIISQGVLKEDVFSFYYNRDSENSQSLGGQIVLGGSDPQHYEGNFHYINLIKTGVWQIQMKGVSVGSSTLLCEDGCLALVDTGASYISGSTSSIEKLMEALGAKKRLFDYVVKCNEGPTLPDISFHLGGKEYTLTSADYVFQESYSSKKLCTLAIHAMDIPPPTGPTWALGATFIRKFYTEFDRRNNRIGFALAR
*1 amine or outer side, *2 acyl side, *3 side chain or, on linkers, in order; H or OH if unused. Where a SMILES comes first, the peptide text is derived from it. [ ]: non-standard residue; d: D form. The star is where a group is joined. ξ: configuration not given here. Sta(3ξ) = CC(C)C[C@H](N[*:1])C(O)CC(=O)[*:2]; Isobutyryl = CC(C)C(=O)*
// pKi here means minus log10 of the molar concentration (mol/L)

Query block: Look at this compound and give its reported pKi. COC(=O)[C@H](Cc1ccccc1)NC(=O)[C@H](CC(C)C)NC(=O)CC(O)[C@H](CC(C)C)NC(=O)[C@H](CC(C)C)NC(=O)COC(=O)C(C)(C)C (some centres undefined)
Result block: 5.77

Query block: For the compound CC(C)C[C@H](NC(=O)CC(O)[C@H](CC(C)C)NC(=O)[C@H](Cc1c[nH]cn1)NC(=O)[C@H](Cc1ccccc1)NC(=O)[C@@H]1CCCN1C(=O)[C@@H](N)Cc1c[nH]cn1)C(=O)N[C@@H](Cc1ccccc1)C(N)=O (some centres undefined) (H-HPFH[Sta(3ξ)]LF-NH2) , what pKi is on record?
Result block: 8.10

Query block: So what's the measured pKi for this one? CC(C)C[C@H](NC(=O)CC(O)[C@H](CC(C)C)NC(=O)[C@H](C)NC(=O)[C@H](Cc1ccccc1)NC(=O)[C@@H]1CCCN1C(=O)[C@H](Cc1c[nH]cn1)NC(=O)C(C)C)C(=O)N[C@@H](Cc1ccccc1)C(N)=O (some centres undefined) (Isobutyryl-HPFA[Sta(3ξ)]LF-NH2)
Result block: 7.00

Query block: Entry CC(C)C[C@H](NC(=O)CC(O)[C@H](CC(C)C)NC(=O)[C@H](Cc1c[nH]cn1)NC(=O)[C@H](Cc1ccccc1)NC(=O)[C@@H]1CCCN1C(=O)[C@H](Cc1c[nH]cn1)NC(=O)C(C)C)C(=O)N[C@@H](Cc1ccccc1)C(N)=O (some centres undefined) (Isobutyryl-HPFH[Sta(3ξ)]LF-NH2) : reported pKi = ?
Result block: 7.80

###

- tested.system: Pepsin A (Sus scrofa, UniProt P00791)
- Sequence (P00791 whole entry): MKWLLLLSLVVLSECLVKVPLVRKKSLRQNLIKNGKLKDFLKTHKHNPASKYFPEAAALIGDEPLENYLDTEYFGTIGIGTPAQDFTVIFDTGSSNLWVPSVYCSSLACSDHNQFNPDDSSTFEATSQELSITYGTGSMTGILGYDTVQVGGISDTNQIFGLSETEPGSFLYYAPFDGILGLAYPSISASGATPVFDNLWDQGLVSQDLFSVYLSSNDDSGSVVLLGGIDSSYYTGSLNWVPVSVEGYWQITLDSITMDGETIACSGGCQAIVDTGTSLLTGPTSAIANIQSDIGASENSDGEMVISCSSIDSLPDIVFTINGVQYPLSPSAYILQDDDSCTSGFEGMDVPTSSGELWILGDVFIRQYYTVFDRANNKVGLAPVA
- measurement.protocol: Inhibition of porcine pepsin at pH 2.0
Give measured pIC50 for each item. Keep answers brief.
Conceptually, pIC50 converts a concentration in mol/L into minus its log10.

Query block: Reported pIC50, compound COC(=O)CC(O)[C@H](CC(C)C)NC(=O)[C@H](C)NC(=O)CC(O)[C@H](CC(C)C)NC(=O)[C@H](Cc1cnc[nH]1)NC(=O)[C@H](Cc1ccccc1)NC(=O)OC(C)(C)C (stereo in doubt; 17) : ____
Result block: 5.89

Query block: State the recorded pIC50 for this entry: COC(=O)CC(O)[C@H](CC(C)C)NC(=O)[C@H](C)NC(=O)CC(O)[C@H](CC(C)C)NC(=O)[C@H](Cc1c[nH]cn1)NC(=O)[C@H](Cc1c[nH]c2ccccc12)NC(=O)OC(C)(C)C (stereo partly drawn)
Result block: 6.07

Query block: Looking for the measured pIC50 of COC(=O)CC(O)[C@H](CC(C)C)NC(=O)[C@H](C)NC(=O)CC(O)[C@H](CC(C)C)NC(=O)[C@H](Cc1cnc[nH]1)NC(=O)[C@H](Cc1ccccc1)NC(=O)OC(C)(C)C (stereo in doubt; 15) , can you help?
Result block: 5.89
